assay: Acute toxicity, intravenous administration, rats; conditions: both sexes, rat, in vivo, Rats (M/F)
Reported Property: LD50 (mg/kg)
API: value field is a number in mg/kg; no unit string.

QUERY: Which LD50 is listed for Cc1nc(N2CC[N+]3(CC2)CC[N+]2(CCNCC2)CC3)c([N+](=O)[O-])c(N2CC[N+]3(CC2)CC[N+]2(CCNCC2)CC3)n1.Cl.Cl.O.O.O.O.O.O.O.O.O.[Cl-].[Cl-].[Cl-].[Cl-] [PDSTP] ?
RESULT: 140

###

test: Cytotoxicity (MTT test) in Vero-76 cells; format: cell-based, African Green Monkey (Cercopithecus aethiops); details: African green monkey
Each entry below lists one item and its recorded CC50 at 72 h value.

CCC(CC)COC(=O)[C@H](C)N[P@](=O)(OC[C@H]1O[C@@](C#N)(c2ccc3c(N)ncnn23)[C@H](O)[C@@H]1O)Oc1ccccc1 ... > 100 µM

Turning to the following molecule.
QUERY: Need CC50 at 72 h of Cc1nc(N2CC[N+]3(CC2)CC[N+]2(CCNCC2)CC3)c([N+](=O)[O-])c(N2CC[N+]3(CC2)CC[N+]2(CCNCC2)CC3)n1.Cl.Cl.O.O.O.O.O.O.O.O.O.[Cl-].[Cl-].[Cl-].[Cl-] , thanks.
RESULT: > 100 µM
